Tested on: Jurkat (clone E6-1) cells with NFAT luciferase reporter
protocolSummary: Jurkat reporter assay (NFAT Luciferase)
Type: cell-based
conditionSummary: Homo sapiens; Jurkat NFAT luciferase reporter cells, anti-CD3 stimulation, 6 hr; read-out: Jurkat NFAT EC50
valueKind: EC50

>>> readoutvalue("CC(NCC1(O)CCC1)c1cc(C(F)(F)F)c2oc(-c3cccc(-c4ccc(F)cc4-c4nncn4C)c3)nc2c1 (centres unmarked)")
"< 200 nM"
>>> readoutvalue("C[C@@H]1CCCN(Cc2cc(C(F)(F)F)c3oc(-c4cc(-c5ccccc5-c5nncn5C)cc(C5CC5)n4)nc3c2)C1")
"1000 to 10000 nM"
>>> readoutvalue("Cn1cnnc1-c1cc(F)ccc1-c1cccc(-c2nc3cc(CN[C@@H]4COC[C@@H]4O)cc(C(F)(F)F)c3o2)c1")
"< 200 nM"
>>> readoutvalue("CO[C@@H](CO)c1cc(C(F)(F)F)c2oc(-c3cccc(-c4ccc(F)cc4-c4nncn4C)c3)nc2c1 (single isomer, unassigned)")
"1000 to 10000 nM"
>>> readoutvalue("Cn1cnnc1-c1cc(F)ccc1-c1cccc(-c2nc3cc(CNCC(C)(C)O)c(F)c(F)c3o2)c1")
"< 200 nM"
>>> readoutvalue("COc1cc(CO)cc2nc(-c3cc(-c4ccc(F)cc4-c4nncn4C)cc(C4CC4)n3)oc12")
"1000 to 10000 nM"
>>> readoutvalue("Cc1cc(CNCC2CCC2)cc2nc(-c3cccc(-c4ccc(F)cc4-c4nncn4C)c3)oc12")
"< 200 nM"
>>> readoutvalue("Cn1cnnc1-c1cc(F)ccc1-c1cccc(-c2nc3cc(CN[C@@H]4CCC[C@@H]4O)cc(Br)c3o2)c1")
"< 200 nM"
>>> readoutvalue("CO[C@@H](C)[C@H](C)NCc1cc(C)c2oc(-c3cc(-c4ccc(F)cc4-c4nncn4C)cc(C4CC4)n3)nc2c1")
"< 200 nM"
>>> readoutvalue("C[C@H]1CCCN(Cc2cc(C(F)(F)F)c3oc(-c4cccc(-c5ccc(C#N)cc5-c5nncn5C)c4)nc3c2)C1")
"200 to 1000 nM"
>>> readoutvalue("Cc1cc(CN[C@@H]2CCC[C@@H]2O)cc2nc(-c3cc(-c4ccc(F)cc4-c4nncn4C)cc(C4CC4)n3)oc12")
"< 200 nM"
>>> readoutvalue("Cn1cnnc1-c1cc(F)ccc1-c1cccc(-c2nc3cc(CN[C@@H]4CCC[C@@H]4O)cc(C4CC4)c3o2)c1")
"< 200 nM"
>>> readoutvalue("Cn1cnnc1-c1cc(F)ccc1-c1cccc(-c2nc3ccc(CN[C@@H]4CCC[C@@H]4O)cc3s2)c1")
"1000 to 10000 nM"
>>> readoutvalue("Cn1cnnc1-c1cc(F)ccc1-c1cc(-c2nc3cc(CO)ccc3o2)cc(C2CC2)c1")
"1000 to 10000 nM"
>>> readoutvalue("CCC1(CNCc2cc(C(F)(F)F)c3oc(-c4cccc(-c5ccc(F)cc5-c5nncn5C)c4)nc3c2)CCC1")
"< 200 nM"
>>> readoutvalue("COC(=O)c1cc(C)c2oc(-c3cc(-c4ccc(F)cc4-c4nncn4C)cc(C4CC4)n3)nc2c1")
"10000 to 50000 nM"
>>> readoutvalue("CN(C)C(=O)CNCc1cc(C(F)(F)F)c2oc(-c3cccc(-c4ccc(F)cc4-c4nncn4C)c3)nc2c1")
"200 to 1000 nM"
>>> readoutvalue("Cn1cnnc1-c1cc(F)ccc1-c1cccc(-c2nc3cc(NCCN4CCC4)cc(C(F)(F)F)c3o2)c1")
"1000 to 10000 nM"
>>> readoutvalue("Cn1cnnc1-c1cc(F)ccc1-c1cc(-c2nc3cc(CNCC4CCC4)cc(F)c3o2)cc(C2CC2)c1")
"< 200 nM"
>>> readoutvalue("Cn1cnnc1-c1cc(F)ccc1-c1cccc(-c2nc3cc(CNCC4(O)CCC4)cc(F)c3o2)c1")
"< 200 nM"
>>> readoutvalue("COCCNCc1cc2nc(-c3cc(-c4ccc(F)cc4-c4nncn4C)cc(C4CC4)n3)oc2c(C)c1F")
"< 200 nM"
>>> readoutvalue("Cn1cnnc1-c1cc(F)ccc1-c1cccc(-c2nc3cc(N[C@@H]4CCC[C@@H]4O)cc(C(F)(F)F)c3o2)c1")
"10000 to 50000 nM"
>>> readoutvalue("CC(NCC1(O)CCC1)c1cc(F)c2oc(-c3cc(-c4ccc(F)cc4-c4nncn4C)cc(C4CC4)n3)nc2c1 (stereo in doubt) [AFQ-6]")
"< 200 nM"
>>> readoutvalue("Cc1cc(C(C)NCC2CCC2)cc2nc(-c3cc(-c4ccc(F)cc4-c4nncn4C)cc(C4CC4)n3)oc12 (centres unmarked)")
"< 200 nM"
>>> readoutvalue("Cc1cc(CN[C@@H]2CCC[C@@H]2O)c(F)c2nc(-c3cccc(-c4ccc(F)cc4-c4nncn4C)c3)oc12")
"< 200 nM"
>>> readoutvalue("Cn1cnnc1-c1cc(F)ccc1-c1cccc(-c2nc3cc(CO)cc(C(C)(F)F)c3o2)c1")
"1000 to 10000 nM"
>>> readoutvalue("Cn1cnnc1-c1cc(F)ccc1-c1cccc(-c2nc3cc(CN4C(=O)O[C@H]5CCC[C@H]54)cc(C(F)(F)F)c3o2)c1")
"1000 to 10000 nM"
>>> readoutvalue("Cn1cnnc1-c1ccccc1-c1cc(-c2nc3cc(CN4CCC5(CC5)C4)cc(C(F)(F)F)c3o2)nc(C2CC2)c1")
"1000 to 10000 nM"
>>> readoutvalue("Cn1cnnc1-c1cc(F)ccc1-c1cccc(-c2nc3cc(CN4CCC5(CC5)C4)cc(C(F)(F)F)c3o2)c1")
"1000 to 10000 nM"
